system: ORYSAT (Rice, Tebonnet); experiment: Postemergence herbicidal evaluation; format: in vivo, Oryza sativa, (L.) Tebonnet; conditions: postemergence, rate 0.0625 kg/ha
result type: herbicidal rating ORYSAT
# answer = number (no unit)

Recorded herbicidal rating ORYSAT, per entry:
{"molecule": "COc1cccc(CN2C(=O)CSC2=Nc2cc(-n3c(=O)cc(C(F)(F)F)n(C)c3=O)c(F)cc2Cl)c1", "result type": "herbicidal rating ORYSAT", "value": 3.5}
{"molecule": "Cc1cccc(CN2C(=O)CSC2=Nc2cc(-n3c(=O)cc(C(F)(F)F)n(C)c3=O)c(F)cc2Cl)c1", "result type": "herbicidal rating ORYSAT", "value": 3.5}
{"molecule": "Cn1c(C(F)(F)F)cc(=O)n(-c2cc(N=C3SCC(=O)N3C3CC3)c(Cl)cc2F)c1=O", "result type": "herbicidal rating ORYSAT", "value": 3.0}
{"molecule": "CN1C(=O)C(CC(=O)NO)SC1=Nc1cc(-n2c(=O)cc(C(F)(F)F)n(C)c2=O)c(F)cc1Cl (stereo not drawn)", "result type": "herbicidal rating ORYSAT", "value": 1.5}
{"molecule": "COc1ccc(CN2C(=O)CSC2=Nc2cc(-n3c(=O)cc(C(F)(F)F)n(C)c3=O)c(F)cc2Cl)cc1OC", "result type": "herbicidal rating ORYSAT", "value": 2.0}

Hello, please tell me recorded herbicidal rating ORYSAT for this one: CCOC(=O)CN1C(=O)C(Cl)SC1=Nc1cc(-n2c(=O)cc(C(F)(F)F)n(C)c2=O)c(F)cc1Cl (stereo not drawn)
0.5

Hello, please tell me recorded herbicidal rating ORYSAT for this one: `Cn1c(C(F)(F)F)cc(=O)n(-c2cc(N=C3SCC(=O)N3Cc3ccc(Cl)cc3)c(Cl)cc2F)c1=O`
3.5

Hello, please tell me recorded herbicidal rating ORYSAT for this one: CCS(=O)(=O)NC(=O)CC1SC(=Nc2cc(-n3c(=O)cc(C(F)(F)F)n(C)c3=O)c(F)cc2Cl)N(C)C1=O (stereo not drawn)
0.0

Hello, please tell me recorded herbicidal rating ORYSAT for this one: CCOC(=O)CN1C(=O)C(CC(=O)NS(=O)(=O)CC)SC1=Nc1cc(-n2c(=O)cc(C(F)(F)F)n(C)c2=O)c(F)cc1Cl (stereo not drawn)
2.5

* * *

system: ZEAMX (Corn, Field); test: Preemergence herbicidal evaluation; type: in vivo, Zea mays; conditions: rate 0.2500 kg/ha; rated 4-5 weeks after treatment
result type: ZEAMX preemergence herbicidal rating
# answer = number (no unit)

{"compound": "CN1C(=O)C(F)SC1=Nc1cc(N2C(=O)C3=C(CCCC3)C2=O)c(F)cc1Cl (centres unmarked)", "result type": "ZEAMX preemergence herbicidal rating", "value": 2.0}
{"compound": "CC1SC(=Nc2cc(N3C(=O)C4=C(CCCC4)C3=O)c(F)cc2Cl)N(C)C1=O (centres unmarked)", "result type": "ZEAMX preemergence herbicidal rating", "value": 2.0}
{"compound": "CCOC(=O)CN1C(=O)C(=C2CCCC2)SC1=Nc1cc(-n2c(=O)cc(C(F)(F)F)n(C)c2=O)c(F)cc1Cl", "result type": "ZEAMX preemergence herbicidal rating", "value": 0.0}

Hello, please tell me recorded ZEAMX preemergence herbicidal rating for this one: `CCOC(=O)CN1C(=O)C(=C(C)C)S/C1=N/c1cc(-n2c(=O)cc(C(F)(F)F)n(C)c2=O)c(F)cc1Cl`
0.0

Hello, please tell me recorded ZEAMX preemergence herbicidal rating for this one: `O=C1CSC(=Nc2cc(N3C(=O)C4=C(CCCC4)C3=O)c(F)cc2Cl)N1c1ccccc1`
2.0
